Reference source for all entries: PubChem BioAssay

# Method Description: P. aeruginosa biofilm formation inhibitors, primary screen, strain PAO1, LB-PBS medium, absorbance 600 nm (AID 1176); also: test concentration not given here
# Condition Info: P. aeruginosa PAO1 growth/biofilm, A600, 12 h; higher = more signal
Reported Property: z-score

>>> numeric_value("CCCCc1nc2c(c3c1C[C@H](C)OC3)CN(CCC(C)C)CC2")
0.332
>>> numeric_value("COC(=O)[C@@H]1CCCN1C(=O)[C@@H](C)CO")
0.0372
>>> numeric_value("CS(=O)(=O)CCOC(=O)C1=CC(CCCO)=CC(c2cccs2)N(Cc2cccc(OC(F)(F)F)c2)C=C1C(=O)OCCS(C)(=O)=O (configuration not stated)")
1.52
>>> numeric_value("O=C1NC(=O)C2C1C=CC(C(O)Cc1ccccc1)N2Nc1ccccn1 (configuration not stated)")
-0.118
>>> numeric_value("CC[C@@H](c1ccccc1)n1c(=O)n2n(c1=O)[C@H]1[C@H](O)[C@@H]3O[C@@H]3C(=NOCC=C(C)CCC=C(C)C)[C@H]1CC2")
-0.261
>>> numeric_value("CCc1cc2c(nc1CC)CCN(CCC(C)=NOC(C)CN1CCCc3nc(C)c(C)cc31)C2 (configuration not stated)")
0.429
>>> numeric_value("CO[C@H]1COC(=O)CC=C[C@H](C)[C@@H](NS(=O)(=O)c2ccc(C)cc2)COC(=O)CC=C[C@@H]1C")
-0.573
>>> numeric_value("O=C(NN=C1C[C@@H](O)[C@@H](O)[C@@H]2[C@@H]3C(=O)N(c4cccc(Oc5ccccc5)c4)C(=O)[C@@H]3CC[C@@H]12)OCc1ccccc1")
0.0942
>>> numeric_value("CCOC(=O)CCN1C(=O)[C@H]2[C@H]3[C@H](O)[C@H](O)CC(=NOCc4ccccc4)[C@@H]3CC[C@H]2C1=O")
0.683
>>> numeric_value("C=CCNC(=O)[C@H]1[C@@H]2C(=O)O[C@@H](c3ccccc3)[C@@H](c3ccccc3)N2[C@@H](c2ccc(O)cc2)[C@]12C(=O)N(C(=O)OCCOC)c1ccc(C#CC3=CCCCC3)cc12")
0.858
>>> numeric_value("CC(C)NC(=O)[C@@]1(c2ccc([N+](=O)[O-])cc2)CC(=O)N(CC23CC4CC(CC(C4)C2)C3)[C@@H]1c1ccc(CO)cc1I")
0.761
>>> numeric_value("COC(=O)C1=CCC(c2cccc(Cl)c2)O1 (configuration not stated)")
0.216

###

z-score for assorted molecules
# Method Description: basal MM1S mitochondrial membrane potential changes, profiling panel, cell-based, JC-1 fluorescence, 24 h, 100 nL compound (AID 1170); also: test concentration not given here
# Condition Info: higher = more signal
Reported Property: z-score

>>> result("COC(=O)[C@]1(CO)N=C(c2ccc(OCCCO)cc2)O[C@@H]1c1ccccc1N=[N+]=[N-]")
-0.471
>>> result("C[C@H]1Cc2c(-c3ccccc3)nc3c(c2CO1)CN(CCOc1ccccc1)CC3")
-0.439
>>> result("CC(C)CON=C1C[C@@H](O)[C@@H](O)[C@@H]2[C@@H]3C(=O)N(C[C@@H]4CCCO4)C(=O)[C@@H]3CC[C@H]12")
0.0335
>>> result("COc1ccccc1CN1C(=O)c2ccccc2[C@@H](C(=O)NCC(F)(F)F)[C@@H]1c1ccc(CO)cc1")
-0.684
>>> result("C=CCOC(=O)[C@H]1[C@@H]2C(=O)O[C@@H](c3ccccc3)[C@@H](c3ccccc3)N2[C@@H](c2ccc(OCCOC(=O)[C@H]3C[C@H]4C(=O)N5CCC[C@H]5C(=O)N4[C@H]3c3cccc(OCCO)c3)cc2)[C@]12C(=O)Nc1ccc(I)cc12")
-0.122
